Provide the reported IC50 of each item.
Target: IL-23 (human, p19/p40 heterodimer) (Homo sapiens, UniProt Q9NPF7;P29460 SEQ:20-189,SEQ:23-328)
Sequence (Q9NPF7 20-189, chain 1 of 2): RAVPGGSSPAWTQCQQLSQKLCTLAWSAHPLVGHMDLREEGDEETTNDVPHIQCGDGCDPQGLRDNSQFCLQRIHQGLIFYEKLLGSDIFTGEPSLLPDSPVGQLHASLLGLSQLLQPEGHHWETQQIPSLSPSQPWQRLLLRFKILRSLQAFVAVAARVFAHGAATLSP
Sequence (P29460 23-328, chain 2 of 2): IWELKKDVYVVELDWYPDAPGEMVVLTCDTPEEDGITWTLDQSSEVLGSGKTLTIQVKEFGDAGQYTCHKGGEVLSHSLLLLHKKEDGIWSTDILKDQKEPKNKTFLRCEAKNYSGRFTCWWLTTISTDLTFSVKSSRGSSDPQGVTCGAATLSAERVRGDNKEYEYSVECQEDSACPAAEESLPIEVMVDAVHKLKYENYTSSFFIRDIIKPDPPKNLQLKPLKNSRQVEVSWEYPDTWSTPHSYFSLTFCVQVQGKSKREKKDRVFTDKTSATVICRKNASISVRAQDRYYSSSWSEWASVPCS
Assay: cell_activity; TransAM STAT3, PHA blasts
Conditions: tags: R&D Systems

What does the record list as IC50 for AMX91-G11 (ssRNA, 2'-F C and U, 2'-OH A and G) RNA: GGGAAAAGCGAAUCAUACACAAGACUUAACAGUGCGGGGCGCAGUGUAUAGAUCCGCAAUGUGUGCUCCGCCAGAGACCAACCGAGAA ?
3000 nM

What does the record list as IC50 for AMX86-D5 (ssRNA, 2'-F C and U, 2'-OH A and G) RNA: GGGAAAAGCGAAUCAUACACAAGAGAGGUAUGUGGUUUUGCGGAGCAACUCGUGUCAGCGGUCAGCUCCGCCAGAGACCAACCGAGAA ?
> 5000 nM

What does the record list as IC50 for AMX84-A11 (ssRNA, 2'-F C and U, 2'-OH A and G) RNA: GGGAAAAGCGAAUCAUACACAAGAGAGGUAUGUGGUUUUGCGGAGCAACUCGUGUCAGCGGUCAGCUCCGCCAGAGACCAACCGAGAA ?
> 5000 nM

What does the record list as IC50 for AMX91-B8 (ssRNA, 2'-F C and U, 2'-OH A and G) RNA: GGGAAAAGCGAAUCAUACACAAGAAUCCUGGCUUCGCAUAGUGUAUGGGUAGUACGACAGCGCGUGCUCCGCCAGAGACCAACCGAGAA ?
450 nM

What does the record list as IC50 for AMX84-C11 (ssRNA, 2'-F C and U, 2'-OH A and G) RNA: GGGAAAAGCGAAUCAUACACAAGAAUGGUCGGAAUCUCUGGCGCCACGCUGAGUAUAGACGGAAGCUCCGCCAGAGACCAACCGAGAA ?
800 nM

What does the record list as IC50 for AMX86-C5 (ssRNA, 2'-F C and U, 2'-OH A and G) RNA: GGGAAAAGCGAAUCAUACACAAGAGUUUUAUGUGGGUCCCGAUGAUUAACUUUAUUGGCGCAUUGCUCCGCCAGAGACCAACCGAGAA ?
3000 nM

What does the record list as IC50 for AMX86-B10 (ssRNA, 2'-F C and U, 2'-OH A and G) RNA: GGGAAAAGCGAAUCAUACACAAGAGAACGAGUAUAUUUGCGCUGGCGGAGAAGUCUCUCGAAGGGAGCUCCGCCAGAGACCAACCGAGAA ?
800 nM
